assay_target: UniProtKB Q02763
Sequence (Q02763 23-1124): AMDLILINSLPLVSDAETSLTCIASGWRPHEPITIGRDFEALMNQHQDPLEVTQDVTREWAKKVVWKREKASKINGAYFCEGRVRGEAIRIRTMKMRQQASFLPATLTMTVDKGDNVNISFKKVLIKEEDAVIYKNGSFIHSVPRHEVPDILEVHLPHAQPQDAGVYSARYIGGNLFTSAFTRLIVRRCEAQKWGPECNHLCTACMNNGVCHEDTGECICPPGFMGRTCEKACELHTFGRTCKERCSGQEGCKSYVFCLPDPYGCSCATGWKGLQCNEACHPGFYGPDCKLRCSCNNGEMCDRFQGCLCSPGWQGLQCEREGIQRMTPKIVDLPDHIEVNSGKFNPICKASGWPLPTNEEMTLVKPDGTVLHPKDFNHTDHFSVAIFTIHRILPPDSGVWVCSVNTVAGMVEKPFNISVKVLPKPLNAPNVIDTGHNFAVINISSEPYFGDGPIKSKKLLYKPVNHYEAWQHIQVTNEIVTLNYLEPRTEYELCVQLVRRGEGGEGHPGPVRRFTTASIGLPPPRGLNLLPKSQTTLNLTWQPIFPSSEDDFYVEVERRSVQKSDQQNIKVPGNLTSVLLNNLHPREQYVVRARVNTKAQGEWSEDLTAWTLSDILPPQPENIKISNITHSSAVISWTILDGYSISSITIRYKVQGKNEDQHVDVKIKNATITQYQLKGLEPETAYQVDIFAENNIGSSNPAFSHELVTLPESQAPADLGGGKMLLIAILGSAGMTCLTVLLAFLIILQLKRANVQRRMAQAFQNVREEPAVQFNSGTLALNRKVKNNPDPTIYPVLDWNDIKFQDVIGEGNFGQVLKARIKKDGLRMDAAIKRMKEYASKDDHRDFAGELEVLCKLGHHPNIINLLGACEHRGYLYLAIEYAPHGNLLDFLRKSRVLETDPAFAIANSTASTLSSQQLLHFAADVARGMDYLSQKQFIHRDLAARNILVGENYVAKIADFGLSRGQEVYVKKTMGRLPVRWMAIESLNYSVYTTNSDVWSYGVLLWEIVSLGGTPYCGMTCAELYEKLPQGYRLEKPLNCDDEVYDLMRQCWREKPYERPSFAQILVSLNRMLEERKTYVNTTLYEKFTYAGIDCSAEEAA
procedure_text: KinomeScan competition binding assay
Design: purchased DiscoveRx Corporation (KinomeScan service)
measurement_name: Kd (nM)
State just the number; it will be interpreted in nM.

I have this compound here, Nc1nc(Nc2ccc3c(c2)CC[C@@H](N2CCCC2)CC3)nn1-c1cc2c(nn1)-c1ccccc1CCC2 , and I need its recorded Kd.
270

###

assay_target: Wee1 (Homo sapiens, UniProt P30291)
Sequence (P30291 whole entry): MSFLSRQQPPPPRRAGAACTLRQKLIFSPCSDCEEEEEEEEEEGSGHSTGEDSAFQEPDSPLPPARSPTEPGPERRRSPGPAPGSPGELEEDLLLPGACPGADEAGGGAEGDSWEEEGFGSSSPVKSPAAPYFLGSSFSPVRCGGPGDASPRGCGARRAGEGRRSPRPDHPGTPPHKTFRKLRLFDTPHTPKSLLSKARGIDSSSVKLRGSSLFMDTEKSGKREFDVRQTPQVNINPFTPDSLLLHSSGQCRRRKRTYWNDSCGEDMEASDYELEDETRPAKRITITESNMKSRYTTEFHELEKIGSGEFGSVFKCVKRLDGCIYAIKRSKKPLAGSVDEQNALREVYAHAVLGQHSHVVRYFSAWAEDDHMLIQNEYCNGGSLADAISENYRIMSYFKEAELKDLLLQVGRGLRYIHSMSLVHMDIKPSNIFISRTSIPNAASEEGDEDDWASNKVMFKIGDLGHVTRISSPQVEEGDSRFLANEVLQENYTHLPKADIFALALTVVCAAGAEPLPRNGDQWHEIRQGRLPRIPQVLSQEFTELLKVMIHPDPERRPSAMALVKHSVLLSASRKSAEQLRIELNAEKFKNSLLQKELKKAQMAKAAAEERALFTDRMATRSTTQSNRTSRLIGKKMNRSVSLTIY
procedure_text: KinomeScan competition binding assay
Design: purchased DiscoveRx Corporation (KinomeScan service)
measurement_name: Kd

I have this compound here, Nc1nc(Nc2ccc3c(c2)CC[C@@H](N2CCCC2)CC3)nn1-c1cc2c(nn1)-c1ccccc1CCC2 [Compound A] , and I need its recorded Kd.
17 nM
